Entry source: patent US20200147235A1

Target: T1, Cynomolgus monkey CD98 expressed on stably transfected 3T12 cells (cynomolgus monkey)
T1 construct: whole, on cells; also called cyCD98
Experiment: flow cytometry, 3T12 cells expressing cynomolgus CD98
Procedure: Briefly, binding kinetics of anti-CD98 chimera mAbs for human and cynomolgus CD98 ECDs were determined by surface plasmon resonance-based measurements as described in Example 4. […] Binding of anti-CD98 chimera mAbs for CD98 on cell surface was evaluated by flow cytometry against CHO-K1 cell line stably transfected to express human CD98 and 3T12 cell line stably transfected to express cynomolgus monkey CD98.
Assign pEC50 to each entry below.
Please treat pEC50 as minus the base-10 logarithm of the molar concentration.

q: Value lookup for pEC50; key = Recombinant anti-CD98 chimeric antibody chAb6 (antibody, human IgG1, V domains shown) VH: QVQLKESGPGLAQPSQTLSLTCTVSGFSLSTYGVIWLRQPPGKGLEWMGVIWTNGNTNYNSTLKSRLSISRDTSESQVYLQMNSLQTEDTATYYCARHYYDGAYYYGYFDYWGQGVMVTVSS VL: DIVMTQTPSSQAVSAGEKVTMSCKSSQSLLYSENKKNYLAWYQQKPGQSPKLLIYWASTRESGVPDRFIGSGSGTDFTLTISSVQAEDLAVYYCQQYYYFPYTFGAGTKLELK
a: 8.22

q: Would you mind telling me what pEC50 value was observed for Recombinant anti-CD98 chimeric antibody chAb14 (antibody, human IgG1, V domains shown) VH: EVKLQQSGDELVRPGASVKISCKASGYTFTSYSMHWVKERPGQGLEWIGAIFPIIGTTEYNQKFKGKATLTADKSSNTANMELSRLTSEDSAVYYCARVYLSYFDYWGQGVMVTVSS VL: DIQMTQSPSFLSASVGDRVTINCKASQNINKYLDWYQRKHGEAPKLLIYNTNNLQTGIPSRFSGSGSGTDYTLTISSLQPEDVATYFCLQHSSRYTFGAGTKLELK ?
a: 7.74

q: Quick one: pEC50 for Recombinant anti-CD98 chimeric antibody chAb13 (antibody, human IgG1, V domains shown, also called chAbl 3) VH: QVQLKESGPGLVQPSQTLSLTCTVSGFSLSSYGVIWVRQPPGKGLEWMGIIWANGNTNYNSALKSRLSISRDTSKSQVYLKMNSLQTEDTATYYCARHYYDGTHYYGYFDYWGQGVMVTVSS VL: DTVMTQTPSSQAVSAGEKVTMSCKSSQSLLYSENKKKYLAWYQQKPGQSPKLLIYWASTRESGVPDRFIGSGSGTDFTLTISSVQAEDLAVYYCQQYYNFPYTFGAGTKLELK ?
a: 8.53

q: Would you kindly share the measured pEC50 for Recombinant anti-CD98 chimeric antibody chAb12 (antibody, human IgG1, V domains shown) VH: EVQLVESGGGLVQPGRSLKLSCAASGFTFSDYAMAWVRQAPKKGLEWVASIIYDGRGTYYRDSVKGRFTISRDNAKSTLYLQMDSLRSEDTATYYCARQGDGTYYYWGSFDYWGQGVMVTVSS VL: DIVMTQSPSSLAVSAGETVTINCKSSQSLLSSGNQKNYLAWYQQKPGQSPKLLIYWASTRQSGVPDRFIGSGSGTDFTLTISSVQAEDLAIYHCQQYYDTPYTFGAGTKLELK ?
a: 7.83

q: # pEC50 lookup, item Recombinant anti-CD98 chimeric antibody chAb15 (antibody, human IgG1, V domains shown) VH: EVQLVESGGGLVQPGRSLKLSCAASGFTFSDYTMAWVRQAPKKGLEWVATIIYDGRGTYYRDSVKGRFTISRDNAKSTLYLQMDSLRSEDTATYYCARQSDGTYYYWGYFDYWGQGVMVTVSS VL: DIVMTQSPSSLAVSAGETVTINCKSSQSLLFSGNQKNYLAWYQQKPGQSPKLLIYWASTRQSGVPDRFIGSGSGTDFTLTIRSVQAEDLAIYYCQQYYDSPYTFGAGTKLELK
a: 7.69
